Each entry below carries its recorded Ki.
# testedTarget: human D3 clone (Homo sapiens, UniProt P35462)
# Construct: expressed in transfected cells
# Sequence (P35462 whole entry): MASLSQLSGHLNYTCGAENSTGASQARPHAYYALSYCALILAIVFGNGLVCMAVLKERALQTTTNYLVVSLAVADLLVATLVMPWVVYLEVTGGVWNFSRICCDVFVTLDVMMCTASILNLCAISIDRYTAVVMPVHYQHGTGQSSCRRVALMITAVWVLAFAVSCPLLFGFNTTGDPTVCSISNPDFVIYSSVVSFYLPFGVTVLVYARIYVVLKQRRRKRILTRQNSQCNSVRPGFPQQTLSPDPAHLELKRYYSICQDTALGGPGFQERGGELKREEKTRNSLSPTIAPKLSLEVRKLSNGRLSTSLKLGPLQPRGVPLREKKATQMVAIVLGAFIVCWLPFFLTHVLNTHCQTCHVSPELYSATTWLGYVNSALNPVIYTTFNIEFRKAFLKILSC
# assayComment: Competitive binding, human D3 clone [3H]domperidone
# cond: human D3 clone, [3H]domperidone; bound given in μM

CCN1CCc2cc(OCCI)cc3c2[C@H]1Cc1ccc(O)c(O)c1-3 [8e, R(−)-2-iodoethoxy-N-ethylnorapomorphine]; > 10 µM

Below: the item to evaluate.
If you can, please state the reported Ki value of Oc1cccc2c1-c1cccc3c1[C@@H](C2)N(CCCF)CC3 [compound 6] .
> 10 µM

---

Quick reference: pKi of the listed items.
# testedTarget: human D3 clone (Homo sapiens, UniProt P35462)
# Construct: expressed in transfected cells
# assayComment: Competitive binding, human D3 clone [3H]domperidone
# cond: human D3 clone, [3H]domperidone
# reply with the number alone; pKi is -log10 of concentration in mol/L

// solved cases for pKi follow
CCCN1CCc2cc(OCCF)cc3c2[C@H]1Cc1ccc(O)c(O)c1-3 [8b, R(−)-2-Fluoroethyoxy-NPA]; 5.66
CN1CCc2cc(OCCF)cc3c2[C@H]1Cc1cccc(O)c1-3 [11g]; 6.05

Form field: reported pKi of CCCN1CCc2cc(OCCCF)cc3c2[C@H]1Cc1ccc(O)c(O)c1-3 [8a, R(−)-2-(3-fluoropropanoxy)-NPA]
6.37

Request: CCCN1CCc2cccc3c2[C@H]1Cc1cccc(O)c1-3 [3b, reference compound]
5.77

---

# testedTarget: D2^low (Rattus norvegicus, UniProt P61169)
# Construct: membrane-containing homogenates of rat corpus striatum tissue
# Sequence (P61169 whole entry): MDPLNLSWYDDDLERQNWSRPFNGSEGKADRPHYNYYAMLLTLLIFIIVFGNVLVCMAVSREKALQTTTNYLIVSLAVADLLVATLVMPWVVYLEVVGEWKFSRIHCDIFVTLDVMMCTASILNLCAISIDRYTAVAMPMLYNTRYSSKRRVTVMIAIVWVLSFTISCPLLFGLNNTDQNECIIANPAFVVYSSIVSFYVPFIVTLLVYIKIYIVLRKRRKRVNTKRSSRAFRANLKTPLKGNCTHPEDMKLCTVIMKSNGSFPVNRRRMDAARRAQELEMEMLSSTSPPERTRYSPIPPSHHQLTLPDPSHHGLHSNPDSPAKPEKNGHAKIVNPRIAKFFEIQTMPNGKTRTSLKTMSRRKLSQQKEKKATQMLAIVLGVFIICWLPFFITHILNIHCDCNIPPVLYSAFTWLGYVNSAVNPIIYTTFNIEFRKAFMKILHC
# assayComment: Competitive radioreceptor binding, D2 low-affinity state, rat striatum [3H]domperidone
metricName: Ki (nM)
Give the number; nM is assumed, so skip it.

CCN1CCc2cc(OCCCF)cc3c2[C@H]1Cc1cccc(O)c1-3 [11c]; 400
CCCN1CCc2cc(OCCF)cc3c2[C@H]1Cc1cccc(O)c1-3 [11b]; 56
CCN1CCc2cc(OCCI)cc3c2[C@H]1Cc1ccc(O)c(O)c1-3 [8e, R(−)-2-iodoethoxy-N-ethylnorapomorphine]; 770
CN1CCc2cc(OCCF)cc3c2[C@H]1Cc1cccc(O)c1-3 [11g]; 480
CN1CCc2cc(OCCF)cc3c2[C@H]1Cc1ccc(O)c(O)c1-3; 620
CCCN1CCc2cc(OCCCF)cc3c2[C@H]1Cc1ccc(O)c(O)c1-3 [8a, R(−)-2-(3-fluoropropanoxy)-NPA]; 3000
CCCN1CCc2cc(F)cc3c2[C@H]1Cc1ccc(O)c(O)c1-3 [2c, 2-F-NPA, reference compound]; 1800

# evaluate next
What Ki value was documented for this compound, "Oc1cccc2c1-c1cccc3c1[C@@H](C2)N(CCCF)CC3" ?
860

---

# testedTarget: D1^low (Rattus norvegicus, UniProt P18901)
# Construct: membrane-containing homogenates of rat corpus striatum tissue; from tissue; host or cells: rat corpus striatum
# Sequence (P18901 whole entry): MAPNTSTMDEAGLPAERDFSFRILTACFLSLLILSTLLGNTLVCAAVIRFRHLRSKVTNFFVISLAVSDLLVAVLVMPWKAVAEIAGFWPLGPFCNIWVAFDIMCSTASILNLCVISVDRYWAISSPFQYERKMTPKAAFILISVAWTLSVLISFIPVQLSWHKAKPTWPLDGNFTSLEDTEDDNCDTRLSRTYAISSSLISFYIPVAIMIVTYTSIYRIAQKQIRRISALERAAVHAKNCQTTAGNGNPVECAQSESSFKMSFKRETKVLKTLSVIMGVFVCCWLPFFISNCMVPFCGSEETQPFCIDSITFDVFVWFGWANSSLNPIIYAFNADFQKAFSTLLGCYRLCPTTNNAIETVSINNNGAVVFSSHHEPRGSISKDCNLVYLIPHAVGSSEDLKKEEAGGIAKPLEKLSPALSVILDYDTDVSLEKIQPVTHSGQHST
# assayComment: Competitive radioreceptor binding, D1 low-affinity state, rat striatum [3H]SCH23390
Recorded Ki for the following compounds

CCCN1CCc2cc(OCCF)cc3c2[C@H]1Cc1cccc(O)c1-3 [11b]; > 2 µM
CCCN1CCc2cc(OC)cc3c2[C@H]1Cc1ccc(O)c(O)c1-3 [2b, 2-MeO-NPA, reference compound]; > 2 µM

Consider now this further compound.
Item under review: CCCN1CCc2cc(OCCCF)cc3c2[C@H]1Cc1ccc(O)c(O)c1-3 [8a, R(−)-2-(3-fluoropropanoxy)-NPA] . Reported Ki?
> 2 µM

Values compiled from patent US9517279B2.
